# MEASUREMENT TARGET: TEAD4 TAZ (amino acids 13-57) (Homo sapiens)
# Sequence (Q15561 217-434 limits assumed): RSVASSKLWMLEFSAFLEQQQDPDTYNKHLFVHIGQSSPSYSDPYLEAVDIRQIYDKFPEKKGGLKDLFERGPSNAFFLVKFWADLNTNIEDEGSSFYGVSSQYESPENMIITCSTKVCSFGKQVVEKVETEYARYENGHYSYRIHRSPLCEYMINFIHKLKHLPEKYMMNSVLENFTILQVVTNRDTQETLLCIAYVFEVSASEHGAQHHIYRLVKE
# ASSAY EXPLANATION: TEAD4-TAZ HTRF (TR-FRET) protein-protein interaction assay
# Assay type: binding
# TEST PARAMETERS: TEAD4, TAZ peptide, HTRF
For each of the compounds below, state its TEAD4 TAZ HTRF combined: Max % Inhibition.
The reply should consist of the numeric value with the unit placed after it.

Some solved entries appear below for comparison.
COMPOUND	RESULT
C[C@H]1[C@@H](CF)CN1C(=O)c1c(-c2ncccn2)nn2c(=O)cc(-c3ccc(C4CCCCC4)cc3)[nH]c12 (single isomer, unassigned) [Isomer B, Example 40]	51.0%
CN(C)C(=O)c1nn2c(=O)cc(-c3ccc(C4CCCCC4)c(F)c3)[nH]c2c1C(=O)N1CC(CF)C1	36.0%

Each of the following entries comes with a recorded value; kindly state TEAD4 TAZ HTRF combined: Max % Inhibition for each.
1. Cc1nccnc1-c1nn2c(=O)cc(-c3ccc(OC(c4ccccc4)C(F)(F)F)cc3)[nH]c2c1C(=O)N1C[C@H](CF)[C@@H]1C (single isomer, unassigned) [Final product obtained using Enantiomer A from Step 1, Example 56]
2. C[C@@H]1[C@H](CF)CN1C(=O)c1c(-c2ncccn2)nn2c(=O)cc(-c3ccc(CC4CCCC4)cc3)[nH]c12 (single isomer, unassigned) [Isomer B, Example 43]
3. CN(C)C(=O)c1nn2c(=O)cc(-c3ccc(C4CCCCC4)cc3)[nH]c2c1C(=O)N1CC(CF)C1
4. Cc1nccnc1-c1nn2c(=O)cc(-c3ccc(C4CCCCC4)cc3)[nH]c2c1C(=O)N1CC(CF)C1
5. Cc1nccnc1-c1nn2c(=O)cc(-c3ccc(O[C@H](c4ccccc4)C(F)(F)F)cc3)[nH]c2c1C(=O)N1CC(CF)C1
6. CN(C)C(=O)c1nn2c(=O)cc(-c3ccc(CC4CCCC4)cc3)[nH]c2c1C(=O)N1CC(CF)C1
7. O=C(c1c(-c2ncccn2)nn2c(=O)cc(-c3ccc(C4CCCCC4)cc3)[nH]c12)N1CC(CF)C1

result:
1: 67.0%; 2: 50.0%; 3: 40.3%; 4: 53.1%; 5: 61.5%; 6: 42.0%; 7: 49.0%

* * *

# MEASUREMENT TARGET: TEAD2 YAP50-100 (Homo sapiens, UniProt Q15562)
# Sequence (Q15562 217-447): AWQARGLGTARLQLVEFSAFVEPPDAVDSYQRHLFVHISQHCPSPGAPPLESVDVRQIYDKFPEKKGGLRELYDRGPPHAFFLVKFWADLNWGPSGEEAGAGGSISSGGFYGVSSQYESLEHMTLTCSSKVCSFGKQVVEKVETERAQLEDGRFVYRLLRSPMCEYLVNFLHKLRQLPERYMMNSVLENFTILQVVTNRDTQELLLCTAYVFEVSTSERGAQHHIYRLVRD
# ASSAY EXPLANATION: TEAD2-YAP HTRF (TR-FRET) protein-protein interaction assay
# Format: binding
# TEST PARAMETERS: TEAD2, YAP peptide 50-100, HTRF; read-out: TEAD2 YAP50-100 HTRF combined: EC50
For each of the compounds below, state its EC50.
The reply should consist of the numeric value with the unit placed after it.

Each of the following entries comes with a recorded value; kindly state EC50 for each.
1. C[C@@H]1[C@H](CF)CN1C(=O)c1c(C(=O)N(C)C)nn2c(=O)cc(-c3ccc(C4CCCCC4)cc3)[nH]c12
2. Cc1nccnc1-c1nn2c(=O)cc(-c3ccc(C4(F)CCCCC4)cc3)[nH]c2c1C(=O)N1CC(CF)C1
3. Cc1nccnc1-c1nn2c(=O)cc(-c3ccc(-c4ccccc4)cc3)[nH]c2c1C(=O)N1CC(CF)C1

result:
710 nM
30 nM
10 nM

Each of the following entries comes with a recorded value; kindly state EC50 for each.
1. CCn1cnc(-c2nn3c(=O)cc(-c4ccc(C5CCCCC5)cc4)[nH]c3c2C(=O)N2CC(CF)C2)c1
2. O=C(c1c(C2CNCCO2)nn2c(=O)cc(-c3ccc(C4CCCCC4)cc3)[nH]c12)N1CC(CF)C1 (single isomer, unassigned) [Enantiomer B, Example 63]
3. O=C(c1c(-c2nccnc2C(F)(F)F)nn2c(=O)cc(-c3ccc(C4CCCCC4)cc3)[nH]c12)N1CC(CF)C1
4. O=C(c1c(-c2cnccn2)nn2c(=O)cc(-c3ccc(C4CCCCC4)cc3)[nH]c12)N1CC(CF)C1
5. C[C@@H]1[C@H](CF)CN1C(=O)c1c(-c2ncccn2)nn2c(=O)cc(-c3ccc(C4CCCCC4)cc3)[nH]c12 (single isomer, unassigned) [Isomer A, Example 40]
6. O=C(c1c(-c2ncccn2)nn2c(=O)cc(-c3ccc(C4(C5CCCC5)CC4)cc3)[nH]c12)N1CC(CF)C1
7. CC(CO)c1nn2c(=O)cc(-c3ccc(C4CCCCC4)cc3)[nH]c2c1C(=O)N1CC[C@@H](C#N)C1 (single isomer, unassigned) [Final product obtained using Enantiomer A from Step 4, Example 54]
8. O=C(c1c(-c2ncccn2)nn2c(=O)cc(-c3ccc(C4CCCCC4)c(F)c3)[nH]c12)N1CC(CF)C1

result:
1: 20 nM; 2: 40 nM; 3: 40 nM; 4: 10 nM; 5: 10 nM; 6: 20 nM; 7: 40 nM; 8: 20 nM

Each of the following entries comes with a recorded value; kindly state EC50 for each.
1. Cc1ccnc(-c2nn3c(=O)cc(-c4ccc(C5CCCCC5)cc4)[nH]c3c2C(=O)N2CC(CF)C2)c1
2. C[C@@H](CO)c1nn2c(=O)cc(-c3ccc(C4CCCCC4)cc3)[nH]c2c1C(=O)N1CC(CF)C1 (single isomer, unassigned) [Enantiomer B, Example 55]
3. CN(C)C(=O)c1nn2c(=O)cc(-c3ccc(C4CCCCC4)cc3)[nH]c2c1C(=O)N1CC(CF)C1
4. O=C(c1c(-c2cccnc2)nn2c(=O)cc(-c3ccc(C4CCCCC4)cc3)[nH]c12)N1CC(CF)C1
5. O=C(c1nn2c(=O)cc(-c3ccc(C4CCCCC4)cc3)[nH]c2c1C(=O)N1CC(CF)C1)N1CCCC1
6. CC(C)c1ccnc(-c2nn3c(=O)cc(-c4ccc(C5CCCCC5)cc4)[nH]c3c2C(=O)N2CC(CF)C2)n1
7. COc1ccnc(-c2nn3c(=O)cc(-c4ccc(C5CCCCC5)cc4)[nH]c3c2C(=O)N2CC(CF)C2)n1
8. O=C(c1c(-c2ncco2)nn2c(=O)cc(-c3ccc(C4CCCCC4)cc3)[nH]c12)N1CC(CF)C1

result:
["10 nM", "10 nM", "10 nM", "20 nM", "20 nM", "10 nM", "10 nM", "10 nM"]

Each of the following entries comes with a recorded value; kindly state EC50 for each.
1. Cc1nccnc1-c1nn2c(=O)cc(-c3ccc(C4CCCCC4)cc3)[nH]c2c1C(=O)N1C[C@H](CF)[C@@H]1C (single isomer, unassigned) [Isomer B, Example 41]
2. O=C(c1c(-c2ccccn2)nn2c(=O)cc(-c3ccc(C4CCCCC4)cc3)[nH]c12)N1CC(CF)C1
3. C[C@H]1[C@@H](CF)CN1C(=O)c1c(-c2ncccn2)nn2c(=O)cc(-c3ccc(CC4CCCC4)cc3)[nH]c12 (single isomer, unassigned) [Isomer A, Example 43]
4. Cc1nccnc1-c1nn2c(=O)cc(-c3ccc(CC4CCCC4)cc3)[nH]c2c1C(=O)N1C[C@H](CF)[C@@H]1C (single isomer, unassigned) [Isomer B, Example 42]
5. CN(C)C(=O)c1nn2c(=O)cc(-c3ccc(CC4CCCC4)cc3)[nH]c2c1C(=O)N1CC(CF)C1
6. C[C@H](CO)c1nn2c(=O)cc(-c3ccc(C4CCCCC4)cc3)[nH]c2c1C(=O)N1CC(CF)C1 (single isomer, unassigned) [Enantiomer A, Example 55]

result:
1: 20 nM; 2: 10 nM; 3: 10 nM; 4: 10 nM; 5: 10 nM; 6: 10 nM

* * *

# MEASUREMENT TARGET: TEAD3 TAZ (amino acids 13-57) (Homo sapiens, UniProt Q99594)
# Sequence (Q99594 173-435 limits assumed): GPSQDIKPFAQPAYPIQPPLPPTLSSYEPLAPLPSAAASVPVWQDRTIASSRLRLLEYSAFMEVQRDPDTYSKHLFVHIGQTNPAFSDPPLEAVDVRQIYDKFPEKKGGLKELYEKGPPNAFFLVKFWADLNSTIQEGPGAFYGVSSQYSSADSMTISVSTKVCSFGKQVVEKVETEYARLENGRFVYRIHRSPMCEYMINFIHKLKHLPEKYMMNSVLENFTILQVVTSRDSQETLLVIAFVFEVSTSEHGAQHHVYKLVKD
# ASSAY EXPLANATION: TEAD3-TAZ HTRF (TR-FRET) protein-protein interaction assay
# TEST PARAMETERS: TEAD3-TAZ HTRF, TR-FRET 665 nm/615 nm; read-out: TEAD3 TAZ HTRF combined: EC50
pEC50: −log10 of the molar value.
Decide by pEC50: equal to or exceeding 7 means true, less means false.

MOLECULE	CLASSIFICATION
Cc1nccnc1-c1nn2c(=O)cc(-c3ccc(OC(c4ccccc4)C(F)(F)F)cc3)[nH]c2c1C(=O)N1C[C@H](CF)[C@@H]1C (single isomer, unassigned) [Final product obtained using Enantiomer A from Step 1, Example 56]	false

query: Evaluate O=C(c1c(-c2ncccn2)nn2c(=O)cc(-c3ccc(CC4CCCC4)cc3)[nH]c12)N1CC(CF)C1 : pEC50 at minimum 7?
result: true

query: Evaluate C[C@H]1[C@@H](CF)CN1C(=O)c1c(-c2cnccn2)nn2c(=O)cc(-c3ccc(CC4CCCC4)cc3)[nH]c12 (single isomer, unassigned) [Isomer B, Example 44] : pEC50 at minimum 7?
result: true

query: Evaluate O=C(c1c(-c2ncco2)nn2c(=O)cc(-c3ccc(C4CCCCC4)cc3)[nH]c12)N1CC(CF)C1 : pEC50 at minimum 7?
result: true

query: Evaluate Cc1nccnc1-c1nn2c(=O)cc(-c3ccc(C4CCC(F)(F)CC4)cc3)[nH]c2c1C(=O)N1CC(CF)C1 : pEC50 at minimum 7?
result: false
